protocol: circular dichroism
assay.setup: water; pH 7.0; 20 °C; 10-50 uM
Bridge positions count the residues as written; N and C are the ends. Square brackets hold non-standard residues; d marks the D form. Peptide text beside a SMILES is read from it. R8 = C=CCCCCCC[C@@](C)(N)C(=O)O; S5 = C=CCCC[C@](C)(N)C(=O)O; βAla = NCCC(=O)O
measured.attribute: helicity

CC(=O)NCCC(=O)N[C@@H](CC(C)C)C(=O)N[C@@H](CO)C(=O)N[C@@H](CCC(N)=O)C(=O)N[C@@H](CCC(=O)O)C(=O)N[C@]1(C)CCCCCCC=CCCC[C@@](C)(C(=O)N[C@@H](CC(C)C)C(=O)N2CCC[C@H]2C(=O)N[C@@H](CCC(=O)O)C(=O)N[C@@H](CC(N)=O)C(N)=O)NC(=O)[C@H](CCCCN)NC(=O)[C@H](Cc2c[nH]c3ccccc23)NC(=O)[C@H](CC(C)C)NC(=O)[C@H](CC(=O)O)NC(=O)[C@H](CO)NC(=O)[C@H](Cc2ccccc2)NC1=O (Ac-[βAla]LSQE[R8]FSDLWK[S5]LPEN-NH2; staple 6-13) ... 10%

Now consider the entry below.
Lab book: helicity of `CC(=O)NCCC(=O)N[C@@H](CCC(N)=O)C(=O)N[C@@H](CO)C(=O)N[C@@H](CCC(N)=O)C(=O)N[C@@H](CCC(N)=O)C(=O)N[C@H](C(=O)N[C@@H](Cc1ccccc1)C(=O)N[C@]1(C)CCCCCCC=CCCC[C@@](C)(C(=O)N[C@@H](CCC(N)=O)C(=O)N[C@@H](CC(N)=O)C(N)=O)NC(=O)[C@H](CC(C)C)NC(=O)[C@H](CC(C)C)NC(=O)[C@H](CCCNC(=N)N)NC(=O)[C@H](Cc2c[nH]c3ccccc23)NC(=O)[C@H](CC(C)C)NC(=O)[C@H](CC(N)=O)NC1=O)[C@@H](C)O` noted as 85%

====

protocol: circular dichroism
assay.setup: water; pH 7.0; 20 °C; 10-50 uM
Bridge positions count the residues as written; N and C are the ends. Square brackets hold non-standard residues; d marks the D form. Peptide text beside a SMILES is read from it. R8 = C=CCCCCCC[C@@](C)(N)C(=O)O; S5 = C=CCCC[C@](C)(N)C(=O)O; βAla = NCCC(=O)O
measured.attribute: helicity (%)
Entry rule: numbers only, all in %.

CC(=O)NCCC(=O)N[C@@H](CC(C)C)C(=O)N[C@@H](CO)C(=O)N[C@@H](CCC(N)=O)C(=O)N[C@@H](CCC(=O)O)C(=O)N[C@H](C(=O)N[C@@H](Cc1ccccc1)C(=O)N[C@@H](CO)C(=O)N[C@@H](CC(=O)O)C(=O)N[C@@H](CC(C)C)C(=O)N[C@@H](Cc1c[nH]c2ccccc12)C(=O)N[C@@H](CCCCN)C(=O)N[C@@H](CC(C)C)C(=O)N[C@@H](CC(C)C)C(=O)N1CCC[C@H]1C(=O)N[C@@H](CCC(=O)O)C(=O)N[C@@H](CC(N)=O)C(N)=O)[C@@H](C)O ... 11
CC(=O)NCCC(=O)N[C@@H](CC(C)C)C(=O)N[C@@H](CO)C(=O)N[C@@H](CCC(N)=O)C(=O)N[C@]1(C)CCCCCCC=CCCC[C@@](C)(C(=O)N[C@@H](CC(C)C)C(=O)N[C@@H](CC(C)C)C(=O)N2CCC[C@H]2C(=O)N[C@@H](CCC(=O)O)C(=O)N[C@@H](CC(N)=O)C(N)=O)NC(=O)[C@H](Cc2c[nH]c3ccccc23)NC(=O)[C@H](CC(C)C)NC(=O)[C@H](CC(=O)O)NC(=O)[C@H](CO)NC(=O)[C@H](Cc2ccccc2)NC(=O)[C@H]([C@@H](C)O)NC1=O (Ac-[βAla]LSQ[R8]TFSDLW[S5]LLPEN-NH2; staple 5-12) ... 12

Next molecule, helicity to be filled in.
Value of helicity reported for the molecule `CC(=O)NCCC(=O)N[C@@H](CC(C)C)C(=O)N[C@@H](CO)C(=O)N[C@@H](CCC(N)=O)C(=O)N[C@@H](CCC(=O)O)C(=O)N[C@H](C(=O)N[C@@H](Cc1ccccc1)C(=O)N[C@]1(C)CCCCCCC=CCCC[C@@](C)(C(=O)N[C@@H](CCC(=O)O)C(=O)N[C@@H](CC(N)=O)C(N)=O)NC(=O)[C@H](CC(C)C)NC(=O)[C@H](CC(C)C)NC(=O)[C@H](CCCCN)NC(=O)[C@H](Cc2c[nH]c3ccccc23)NC(=O)[C@H](CC(C)C)NC(=O)[C@H](CC(=O)O)NC1=O)[C@@H](C)O` is 59

// provenance: patent US9527896B2
